Target: human muscarinic M4 receptor (Homo sapiens)
Construct: expressed in transfected cells
Sequence (P08173 1-479): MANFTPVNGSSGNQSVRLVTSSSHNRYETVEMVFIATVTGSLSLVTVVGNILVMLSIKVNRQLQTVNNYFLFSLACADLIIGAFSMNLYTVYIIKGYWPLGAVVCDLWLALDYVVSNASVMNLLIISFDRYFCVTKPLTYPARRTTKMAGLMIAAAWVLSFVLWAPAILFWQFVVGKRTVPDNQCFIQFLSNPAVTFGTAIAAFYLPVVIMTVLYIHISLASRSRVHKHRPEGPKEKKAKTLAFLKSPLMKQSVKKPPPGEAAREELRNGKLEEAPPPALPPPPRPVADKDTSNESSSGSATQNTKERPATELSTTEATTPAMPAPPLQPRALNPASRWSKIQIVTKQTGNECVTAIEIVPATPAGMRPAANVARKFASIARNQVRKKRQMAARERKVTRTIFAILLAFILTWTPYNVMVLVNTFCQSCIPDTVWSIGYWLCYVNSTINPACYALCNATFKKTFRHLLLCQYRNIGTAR
Experiment: Alphascreen Surefire phospho-ERK1/2 functional assay, M4
Assay type: cell-based
Conditions: CHO, read-out: % Emax cf. ACh, M4
experimentalReadout: Emax
I'd appreciate it if you wrote the number followed by its unit.

**Q:** For c1ccc2c(c1)CCCN2CCCN1C2CCC1CC(CCCOC1=NOCC1)C2 (centres unmarked) , what is its reported Emax?
**A:** 16%

**Q:** One more compound: O=C1CCc2ccccc2N1CCCN1[C@@H]2CC[C@H]1CC(CCOC1=NOCC1)C2 (some centres unmarked)
**A:** 53%

**Q:** One more compound: `O=C1CCc2ccccc2N1CCCN1[C@@H]2CC[C@H]1CN(CCCOC1=NOCC1)C2`
**A:** 32%

**Q:** One more compound: O=C1CCON1CCCC1C[C@@H]2CC[C@@H](C1)N2CCCN1C(=O)CCc2ccccc21 (some centres unmarked)
**A:** 12%

**Q:** One more compound: `O=C1COc2cc(F)ccc2N1CCCN1CCC(CCCCOC2=NOCC2)CC1`
**A:** 25%

**Q:** One more compound: `O=C1CCON1CCCCCC1CCN(CCCN2C(=O)CCc3ccccc32)CC1`
**A:** 5%

**Q:** One more compound: `O=C1CCc2ccccc2N1CCCN1CCC(CCCCOC2=NOCC2)CC1`
**A:** 10%

**Q:** One more compound: `O=C1COc2cc(F)ccc2N1CCCN1CCC(CCOC2=NOCC2)CC1`
**A:** 8%
